# System: MS2 coat protein
# METHOD_SUMMARY: apparent KD of MS2 coat protein; designed switch direction (-1 OFF switch, 1 ON switch): -1; higher = weaker reporter binding
# CONDITION_INFO: input ligand: none
apparent KD of MS2 coat protein listing for selected sequences.
Answer with a number only, understood to be in µM.

Study these solved cases before continuing.
- UCGUGAUUAGAGGAUAUAUUUUGAGUCAGAACAAUAGAAGGCUAAACAUGAGGAUCACCCAUGUAAAUGUGUAA [JR_Ex6_Sub061] (Eterna round: R97, puzzle: Exclusion 6): 0.0349
- UACGAAUUAGGAUAUGCAAUGGGCUCGCUUUCCUUCGAUAAACUUGAGGAUCACCCAAGUAGAAGGAAUUUGUA [Mod 37 - Jieux - Exclusion 2] (Eterna round: R97, puzzle: Exclusion 2): 0.0129

State its apparent KD of MS2 coat protein: UGACUACAUGAGGAUCACCCAUGUCAGGAUAUGCCGUUAAAUUAACAUCAACAUACGGGUAGAAGGGACAGCGU [1st #5] (Eterna round: R97, puzzle: Exclusion 1)
0.0294

State its apparent KD of MS2 coat protein: AUAAUGUGAGGAUAUCAGUCGUACAGCGAUAGCUGUACGACUGAGAAGGCACAUGAGGAUCACCCAUGUGGUCA [E4/5-A4] (Eterna round: R97, puzzle: Exclusion 4)
0.562

State its apparent KD of MS2 coat protein: UUUUAGCAAGCGAGAAUUAACAUGAGGAUCACCCAUGUGCAUCCAGAAUUACUUUUAGAACAAGCUCGUCUUAUAUA [JR_STOV1_v2_Sub081] (Eterna round: R97, puzzle: Sensor, turn-off variant 1)
0.401

State its apparent KD of MS2 coat protein: AAUGAGCAAGUCAGGAUAUUAAGCCACAGCUGGCGUAAGAAGGGACAUGAGGAUCACCCAUGUUCAUCCAAUGG [Eternabot (Original) Solution 15] (Eterna round: R97, puzzle: Brourd's mod of Exclusion 4)
0.0159

State its apparent KD of MS2 coat protein: CAGUACUGAGGAUAUACAUGAGGAUCACCCAUGUUCUUCGGCUAGGAAACUAGCAAAGGUAGAAGGCAGUACUG [Salish 065 m16] (Eterna round: R97, puzzle: Exclusion 3)
0.0157

* * *

# System: MS2 coat protein
# METHOD_SUMMARY: apparent KD of MS2 coat protein; higher = weaker reporter binding
# CONDITION_INFO: Eterna round: R107; input ligand: tryptophan 2.4 mM
apparent KD of MS2 coat protein listing for selected sequences.
Answer with a number only, understood to be in nM.

* AGACAUGAGGAUCACCCAUGUAGUACGGAUACCAGAUCCAGAUGUAUCCCUUGGCAGCUGUGGUACAGCGUUACAUCGCUCGUAG [Exclusion - Theophylline A (Freestyle 21)] | 16.2
* GUGACUUACGGGCGCCAUUUGUAAUAGGAAGGAGCGGCGAAAUAGCCAGGUAGGUCGCCUAUACAUGAGGAUCACCCAUGUCACC [Esatbileor] | 77.8
* AGAGCAUUGACGGCCGCCACUCAUGUCACAUGAGGAUCACCCAUGUGAUGGGUAAUCGCCCGGUUGAGGACCGGGUCAAUGCUCA [Omei Tryp SS B v3] | 10.7

State its apparent KD of MS2 coat protein: AUAACUGCCAAGGAUCAUGGGUGAGCAGAUACCAGCUAGGAAACUAGCCCUUGGCAGCUGCAACAUGAGGAUCACCCAUGUAAUA [(T)'-(M)'-(T1)-(T2)-(M1)-(M2)_Design8]
90.4

State its apparent KD of MS2 coat protein: ACAACAUGAGGCGAUACCAGAGGCAACAUGAGGAUCACCCAUGUUCACCCAUGUGAUCACCUCCCUUGGCAGCGCACAUGAGGAU [Same State - Theophylline B #1]
12.3

* * *

# System: MS2 coat protein
# METHOD_SUMMARY: apparent KD of MS2 coat protein; designed switch direction (-1 OFF switch, 1 ON switch): -1; higher = weaker reporter binding
# CONDITION_INFO: input ligand: microRNA oligo, concentration not stated
READOUT_TYPE: apparent KD of MS2 coat protein (nM)
Answer with a number only, understood to be in nM.

Provide measured apparent KD of MS2 coat protein on MS2 coat protein for AAAACAAAGCUAGGAUAUUGUCCGAUGUAGCGAUAAGAAGGAGCAGAGUACGUCUGGUCCACAUGAGGAUCACCCAUGUACAAA [Inmaon] (Eterna round: R96, puzzle: Exclusion NG 1) please.
79.6

Provide measured apparent KD of MS2 coat protein on MS2 coat protein for GUGUUGUAUGUAGGAUAUGCAUACUGUUAGUAUGCAGAAGGACAUGAGGAUCACCCAUGUAUAUUAUUAUUAUAUAUCAUACAU [MOD of Hoglahoo's Title] (Eterna round: R96, puzzle: Exclusion NG 1) please.
15.2

Provide measured apparent KD of MS2 coat protein on MS2 coat protein for AUCGUGCAGCUUUGCUGUACGAGUACAUGAGGAUCACCCAUGUAGGAUAUGGUACGCUUUGCGUGCUAGAAGGAUAUGCGUUUG [EX ENG3 1.45] (Eterna round: R96, puzzle: Exclusion NG 3) please.
40

Provide measured apparent KD of MS2 coat protein on MS2 coat protein for GUCAGCUCGUGAGGAUAUAUAUACAUGAGGAUCACCCAUGUAAGAUCAGCACUUCGGUGCAGUAUAUAGAAGGCACGAGCUGAC [ENG2/13-A1] (Eterna round: R96, puzzle: Exclusion NG 2) please.
21.6

Provide measured apparent KD of MS2 coat protein on MS2 coat protein for CAUUGUUAUCGAGGAUAUCGUAUUGAGAUACUACGAGAAGGCGGAAUAAACAUGAGGAUCACCCAUGUGAGACGGAUGCUUGUG [Ex NG1 #34] (Eterna round: R96, puzzle: Exclusion NG 1) please.
16

* * *

# Tested on: MS2 coat protein
# METHOD_SUMMARY: apparent KD of MS2 coat protein; designed switch direction (-1 OFF switch, 1 ON switch): -1; higher = weaker reporter binding
# CONDITION_INFO: Eterna round: R95; input ligand: microRNA oligo, concentration not stated
READOUT_TYPE: apparent KD of MS2 coat protein (nM)
Answer with a number only, understood to be in nM.

* GUGUAGGUAGGAUAUACAUGAGGAUCACCCAUGUGAAUAAGAUAGAAUAAGAUAAAGUGUAGAAGGGCUAGUGU [Excluse me!!! 13 - Jieux - Exclusion 3] (puzzle: Exclusion 3) | 34.5
* AAAAAGUGAGGAUAUACAUAAGGACCCGGGAGGGAAAUAAAACAUGAGGAUCACCCAUGUAGAAGGCACAAAAA [Exclss2-I] (puzzle: Exclusion 2) | 22.2
* CAUGUGUAAGGAUAUGACAAUGGUAUCUUCGGAUACCAUUGUCAGAAGGUACAUGAGGAUCACCCAUGUACAUC [Ex4-3: 17] (puzzle: Exclusion 4) | 13.1
* GGUGCGUUUGUGAGGAUAUGCUGGUCCUUGGUUCAGCAGAAGGCACAUGAGGAUCACCCAUGUGGUGUCGUACC [salish99_Bmod_Ex4_031] (puzzle: Brourd's mod of Exclusion 4) | 145
* CAGUACUGCAGGCUUCGGGACAUGAGGAUCACCCAUGUUCGUCUUAUUGAUCUAGGUACGCUGACGUACCUAGAUCU [JL-sv1-2.16 Brourd mod] (puzzle: Sensor v3, turn-off variant 1) | 18.6

State its apparent KD of MS2 coat protein: UUUUUGUGAGGAUAUCAGUAGUAGAACAAUAGUACUACUACUGAGAAGGCACAUGAGGAUCACCCAUGUUCCUC [Fiskers Ex 4 Super stable 44 mod 9] (puzzle: Exclusion 4)
52.6

State its apparent KD of MS2 coat protein: AAAUAACAAGCGAGAUCCUACAUGAGGAUCACCCAUGUGCUCGUCUUAUUAAGUACUAUCACGAAAGUGAUAGUACA [Mat - Sensor v3 - turn-off var 1 - Eli Mod - D66] (puzzle: Sensor v3, turn-off variant 1)
239

State its apparent KD of MS2 coat protein: GGAAAGUGAGGAUAUGGUAAAGUAAGUAUGUAGUAAGUAAUCCAGAAGGCACAUGAGGAUCACCCAUGUAAAGG [Mat - Exclusion 4 - D101] (puzzle: Exclusion 4)
25.4

State its apparent KD of MS2 coat protein: ACGAAACAUGAGGAUCACCCAUGUGAGGAUAUGUAAAUACUAGACAAAUAACAGAAAAACAGAAGGCACUCAGA [JR_Exclusion1_Sub003] (puzzle: Exclusion 1)
22

State its apparent KD of MS2 coat protein: GGUAGUAUGAGUAGUCCUCAUUGAAGAGAGUGGUAAGAAACAUGAGGAUCACCCAUGUAAGAACAAGCUUUUGCUCA [JR_Sv3TOV2_Sub005] (puzzle: Sensor v3, turn-off variant 2)
15.9

These entries and their values trace back to the supplement of paper PMC9170038.
